- Study target: UniProt O15379
- Sequence (O15379 whole entry): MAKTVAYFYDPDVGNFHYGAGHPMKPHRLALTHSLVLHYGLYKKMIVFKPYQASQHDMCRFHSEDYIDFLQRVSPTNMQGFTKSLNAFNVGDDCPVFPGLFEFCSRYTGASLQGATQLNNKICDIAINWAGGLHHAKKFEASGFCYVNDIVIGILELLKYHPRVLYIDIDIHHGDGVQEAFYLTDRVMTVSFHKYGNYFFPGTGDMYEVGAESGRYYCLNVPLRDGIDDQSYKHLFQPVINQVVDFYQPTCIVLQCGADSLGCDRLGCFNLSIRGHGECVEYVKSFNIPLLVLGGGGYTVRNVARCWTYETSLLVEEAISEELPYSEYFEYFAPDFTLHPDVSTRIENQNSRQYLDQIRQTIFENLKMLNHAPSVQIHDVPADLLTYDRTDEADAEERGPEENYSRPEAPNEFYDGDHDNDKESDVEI
Property measured: pIC50
# pIC50: negative log10 of molar concentration; output just the value

Enquiry: Reported pIC50, compound O=C(CCCCCCC(=O)NO)NO [SUBEROHYDROXAMIC ACID] : ____
Return: 4.20
